System: Phytophthora infestans
Test: whole plant or invertebrate
Type: in vivo
Settings: Phytophthora infestans, topical, 72 h, read-out: Efficacy in % found
measurement name: pest or weed control at 100 ppm (%)
Return type: number; implicit unit %.

Field: example entries. Status: answers known.
molecule	numeric value
CC(C)(C)C(O)(CCc1ccc(Cl)cc1)Cn1cncn1 (stereo not shown)	15
CC1COC(Cn2cncn2)(c2ccc(Oc3ccc(Cl)cc3)cc2Cl)O1 (stereo not shown)	0
OC(Cc1ccccc1Cl)(Cn1nc[nH]c1=S)C1(Cl)CC1 (stereo not shown)	45

Now, please, on to the next molecule.
Task item: For the molecule CC1(C(=O)Nc2ccc(O)c(Cl)c2Cl)CCCCC1 , give its measured pest or weed control at 100 ppm value.
Reply: 0

---

Test system: Septoria tritici
Assay: Septoria tritici-test (wheat)/preventive
Assay type: in vivo
Conditions: Table 16; 31.25 ppm a.i.; 21 days after inoculation
Efficacy in % found reference
Return type: number; implicit unit %.

smiles input	Efficacy in % found (%)
CON=C(C(=O)OC)c1ccccc1CON=C(C)c1cccc(C(F)(F)F)c1	75
Cn1cc(C(=O)Nc2ccccc2-c2cc(F)c(F)c(F)c2)c(C(F)F)n1	13
COC(=O)N(OC)c1ccccc1COc1ccn(-c2ccc(Cl)cc2)n1	75

Now, please, on to the next compound.
Task item: For the compound CO/C=C(/C(=O)OC)c1ccccc1Oc1cc(Oc2ccccc2C#N)ncn1 , give its measured Efficacy in % found value.
Reply: 50
